# System: Escherichia coli TOP10
# assay.comment: shrunken log2 fold change of peptide-encoding DNA abundance (4.5 h post-induction vs induction); higher = less antimicrobial activity (less host growth inhibition)
# condition.description: time post-induction: 4.5 h; library: site-saturation at positions 5, 18, 19, 20
shrunken log2 fold change vs -0.1: at or above is YES, below is NO.

For orientation, consider the following solved cases.
[
  {
    "input.sequence": "RRIRCRPPRLPRPRPRPTHWPRP",
    "group": "YES"
  },
  {
    "input.sequence": "RRIRIRPPRLPRPRPRPEQEPRP",
    "group": "YES"
  },
  {
    "input.sequence": "RRIRQRPPRLPRPRPRPTHKPRP",
    "group": "YES"
  },
  {
    "input.sequence": "RRIRCRPPRLPRPRPRPTWEPRP",
    "group": "YES"
  },
  {
    "input.sequence": "RRIRDRPPRLPRPRPRPENWPRP",
    "group": "YES"
  }
]

Is reported shrunken log2 fold change greater than or equal to -0.1 here: RRIRLRPPRLPRPRPRPTGRPRP
YES

Next up: RRIRHRPPRLPRPRPRPMKQPRP
YES

Next up: RRIRSRPPRLPRPRPRPCAFPRP
NO

Next up: RRIRFRPPRLPRPRPRPSTTPRP
NO

* * *

# System: Escherichia coli TOP10
# assay.comment: shrunken log2 fold change of peptide-encoding DNA abundance (4.5 h post-induction vs induction); higher = less antimicrobial activity (less host growth inhibition)
# condition.description: time post-induction: 4.5 h; library: site-saturation at positions 5, 18, 19, 20
Assign shrunken log2 fold change to each entry below.
One number for each entry.

Worked cases, shrunken log2 fold change given:
[
  {
    "input.sequence": "RRIRTRPPRLPRPRPRPEYGPRP",
    "shrunken log2 fold change": -0.0673
  },
  {
    "input.sequence": "RRIRRRPPRLPRPRPRPVNVPRP",
    "shrunken log2 fold change": -0.0902
  },
  {
    "input.sequence": "RRIRHRPPRLPRPRPRPAVCPRP",
    "shrunken log2 fold change": 0.0561
  },
  {
    "input.sequence": "RRIRDRPPRLPRPRPRPVHGPRP",
    "shrunken log2 fold change": 1.43
  },
  {
    "input.sequence": "RRIRERPPRLPRPRPRPQIPPRP",
    "shrunken log2 fold change": -0.237
  }
]

Record shrunken log2 fold change for all entries; do not skip any.
1. RRIRERPPRLPRPRPRPKNSPRP
2. RRIRNRPPRLPRPRPRPLDFPRP
3. RRIRFRPPRLPRPRPRPWMSPRP

1. -0.52
2. -0.386
3. -0.0139

* * *

# Tested on: Escherichia coli TOP10
# assay.comment: shrunken log2 fold change of peptide-encoding DNA abundance (4.5 h post-induction vs induction); higher = less antimicrobial activity (less host growth inhibition)
# condition.description: time post-induction: 4.5 h; library: site-saturation at positions 5, 18, 19, 20
Assign shrunken log2 fold change to each entry below.

Worked cases, shrunken log2 fold change given:
[
  {
    "input.sequence": "RRIRNRPPRLPRPRPRPDACPRP",
    "shrunken log2 fold change": -0.0102
  },
  {
    "input.sequence": "RRIRFRPPRLPRPRPRPLHTPRP",
    "shrunken log2 fold change": -0.262
  },
  {
    "input.sequence": "RRIRGRPPRLPRPRPRPLGMPRP",
    "shrunken log2 fold change": 0.575
  },
  {
    "input.sequence": "RRIRYRPPRLPRPRPRPLHEPRP",
    "shrunken log2 fold change": -0.343
  },
  {
    "input.sequence": "RRIRIRPPRLPRPRPRPMYTPRP",
    "shrunken log2 fold change": -0.244
  }
]

Record shrunken log2 fold change for all entries; do not skip any.
1. RRIRERPPRLPRPRPRPYSSPRP
2. RRIRYRPPRLPRPRPRPVIHPRP
3. RRIRFRPPRLPRPRPRPFIGPRP

-0.0288
-0.0643
-0.362

Record shrunken log2 fold change for all entries; do not skip any.
1. RRIRCRPPRLPRPRPRPVEEPRP
2. RRIRTRPPRLPRPRPRPKTEPRP
3. RRIRGRPPRLPRPRPRPDYSPRP

1. -0.0384
2. 0.0183
3. -0.0453

Record shrunken log2 fold change for all entries; do not skip any.
1. RRIRDRPPRLPRPRPRPQGVPRP
2. RRIRTRPPRLPRPRPRPVDYPRP
3. RRIRLRPPRLPRPRPRPAWLPRP
4. RRIRARPPRLPRPRPRPQMAPRP

1: 0.0763; 2: -0.172; 3: 0.229; 4: 0.274

* * *

# Test system: Escherichia coli TOP10
# assay.comment: shrunken log2 fold change of peptide-encoding DNA abundance (4.5 h post-induction vs induction); higher = less antimicrobial activity (less host growth inhibition)
# condition.description: time post-induction: 4.5 h; library: site-saturation at positions 5, 18, 19, 20
Assign shrunken log2 fold change to each entry below.
Numbers only.

[
  {
    "input.sequence": "RRIRMRPPRLPRPRPRPHVTPRP",
    "reported.measurement": -0.441
  }
]

Record shrunken log2 fold change for all entries; do not skip any.
1. RRIRYRPPRLPRPRPRPTWKPRP
2. RRIRKRPPRLPRPRPRPPPLPRP
3. RRIRGRPPRLPRPRPRPWSVPRP

1: -0.333; 2: 0.661; 3: -0.131

Record shrunken log2 fold change for all entries; do not skip any.
1. RRIRDRPPRLPRPRPRPISDPRP
2. RRIRIRPPRLPRPRPRPTGCPRP
3. RRIRWRPPRLPRPRPRPMDYPRP
4. RRIRTRPPRLPRPRPRPGQMPRP
5. RRIRWRPPRLPRPRPRPHSWPRP
6. RRIRMRPPRLPRPRPRPAFGPRP
7. RRIRIRPPRLPRPRPRPCERPRP

1. 0.0148
2. -0.0215
3. -0.314
4. 0.0303
5. 0.189
6. 1.05
7. -0.0509

Record shrunken log2 fold change for all entries; do not skip any.
1. RRIRGRPPRLPRPRPRPNYCPRP
2. RRIRQRPPRLPRPRPRPSMNPRP
3. RRIRLRPPRLPRPRPRPGTAPRP

0.00136
-0.568
0.362

Record shrunken log2 fold change for all entries; do not skip any.
1. RRIRSRPPRLPRPRPRPTYFPRP
2. RRIRYRPPRLPRPRPRPFVHPRP
3. RRIRLRPPRLPRPRPRPCPPPRP

1. -0.563
2. -1.49
3. 0.157

Record shrunken log2 fold change for all entries; do not skip any.
1. RRIRVRPPRLPRPRPRPRGFPRP
2. RRIRGRPPRLPRPRPRPVRGPRP

0.26
0.866

Record shrunken log2 fold change for all entries; do not skip any.
1. RRIRLRPPRLPRPRPRPFEQPRP
2. RRIRQRPPRLPRPRPRPPREPRP

1: 0.305; 2: 0.655

Record shrunken log2 fold change for all entries; do not skip any.
1. RRIRTRPPRLPRPRPRPRCQPRP
2. RRIRGRPPRLPRPRPRPRFYPRP
3. RRIRWRPPRLPRPRPRPEWCPRP
4. RRIRDRPPRLPRPRPRPVNYPRP

[0.113, 0.189, 0.386, -0.116]

Record shrunken log2 fold change for all entries; do not skip any.
1. RRIRDRPPRLPRPRPRPYLGPRP
2. RRIRIRPPRLPRPRPRPVLCPRP
3. RRIRLRPPRLPRPRPRPYAAPRP
4. RRIRRRPPRLPRPRPRPVCHPRP
5. RRIRARPPRLPRPRPRPFNRPRP
6. RRIRERPPRLPRPRPRPLTYPRP

-0.021
-0.0142
-0.36
-0.0349
-0.277
-0.188

* * *

# Test system: Escherichia coli TOP10;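 further: peptides expressed intracellularly from a pBAD plasmid library in pooled LB shake-flask culture, induced with 0.3% L-arabinose, DNA abundance read by NGS, three biological replicates, DESeq2 with apeglm shrinkage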
# assay.comment: shrunken log2 fold change of peptide-encoding DNA abundance (4.5 h post-induction vs induction); higher = less antimicrobial activity (less host growth inhibition)
# condition.description: time post-induction: 4.5 h; library: site-saturation at positions 5, 18, 19, 20
quantity.name: shrunken log2 fold change
Give bare numbers.

[
  {
    "input.sequence": "RRIRPRPPRLPRPRPRPEAIPRP",
    "shrunken log2 fold change": 0.102
  },
  {
    "input.sequence": "RRIRCRPPRLPRPRPRPIFGPRP",
    "shrunken log2 fold change": -0.0692
  }
]

Record shrunken log2 fold change for all entries; do not skip any.
1. RRIRGRPPRLPRPRPRPFWFPRP
2. RRIRYRPPRLPRPRPRPHMNPRP

1: 0.283; 2: -1.2

Record shrunken log2 fold change for all entries; do not skip any.
1. RRIRQRPPRLPRPRPRPHEIPRP
2. RRIRSRPPRLPRPRPRPPSIPRP

-0.0149
0.2

Record shrunken log2 fold change for all entries; do not skip any.
1. RRIRGRPPRLPRPRPRPSCVPRP
2. RRIRARPPRLPRPRPRPWWCPRP
3. RRIRWRPPRLPRPRPRPADNPRP
4. RRIRTRPPRLPRPRPRPDGYPRP
5. RRIRFRPPRLPRPRPRPNLWPRP
6. RRIRCRPPRLPRPRPRPMWCPRP
7. RRIRVRPPRLPRPRPRPPCGPRP
8. RRIRPRPPRLPRPRPRPNFIPRP

0.499
-0.0725
0.212
-0.0637
0.031
0.148
0.297
-0.215

Record shrunken log2 fold change for all entries; do not skip any.
1. RRIRDRPPRLPRPRPRPSKSPRP
2. RRIRIRPPRLPRPRPRPSLLPRP
3. RRIRERPPRLPRPRPRPTAWPRP
4. RRIRNRPPRLPRPRPRPCMFPRP
5. RRIRERPPRLPRPRPRPSLYPRP
6. RRIRDRPPRLPRPRPRPRKVPRP
7. RRIRGRPPRLPRPRPRPGSYPRP

-0.223
-0.374
0.378
-0.68
-0.558
0.187
-0.242

Record shrunken log2 fold change for all entries; do not skip any.
1. RRIRGRPPRLPRPRPRPSSRPRP
2. RRIRVRPPRLPRPRPRPWMCPRP
3. RRIRRRPPRLPRPRPRPHDRPRP

1: 0.372; 2: -0.522; 3: 0.103

Record shrunken log2 fold change for all entries; do not skip any.
1. RRIRERPPRLPRPRPRPGTKPRP
2. RRIRFRPPRLPRPRPRPKIYPRP

-0.0636
-0.328

Record shrunken log2 fold change for all entries; do not skip any.
1. RRIRCRPPRLPRPRPRPTWQPRP
2. RRIRLRPPRLPRPRPRPFDEPRP
3. RRIRWRPPRLPRPRPRPCQSPRP
4. RRIRLRPPRLPRPRPRPHRVPRP
5. RRIRHRPPRLPRPRPRPYIIPRP
6. RRIRPRPPRLPRPRPRPYANPRP

0.288
0.0466
-0.098
0.0399
-0.855
-0.231

Data origin: the supplement of paper PMC9112550
